Provenance of the data: patent US20180186897A1

molecular target: erythrocytes infected with P. falciparum field isolate 9215; assay: flow cytometry, staining of IEs
So I've got a bunch of binders here, and I need their % parasite recognition values.
Quick note: give the figure in %, leave out the unit.

Task: Indicate its recorded % parasite recognition; the binder in question is MGD23 (antibody) VH: QVQLQESGPGLVKPSGTLSLTCSVSGGSISSNKWWSWVRQSPGKGLEWIGEVYQTGITNYNPSLKGRVTMSVDKSKNQFSLRLTSVTAADTAVYYCATISQLRPQGDTEDLPRPSLSAEPGTVIPLGSHVTFVCRGPAGVETFRLERESRFTYNDTEDVSQASPSESEARFRIDSVSEGNAGPYRCLYYKARKWSDQSDYLELLVKGADVTWALPQSQLAPRACPQGELRISTDVFSMNVWGNGTTVTVSS VL: AVRVTQSPTSLSASTGDRVTITCRTSQYVGNYLDWYQQKPGKAPKLLIHGVSTLQNGVPSRFSGSASGTDFTLNITCLQSEDSATYYCQQYYTSPPDFGQGTRLEIK
Result: 11.4

Task: Complete the entry with % parasite recognition for MGC7 (antibody) VH: EVQLVESGGDLVQPGGSLRLSCAASGFTFRNYWMSWVRQTPGKGLEWVANIRQDGSEKYYVDSVKGRFTISRDNAKNLLYLQMNSLRAEDTAVYYCVRDKFCSDENHMHVADDLPRPSISPEPGTVIPLGSHVTFVCRGPVGVQTFRLEKDRRSTYNDTEDVSQPSPSESEARFRIDSVTEGNAGLYRCVYYKPPKWSDQSDFLELLVKGEDVTWALFPHCGADGEDSDYYMDVWGKGTTVTVSS VL: DIQMTQSPSSVSASVGDRVTITCRASQGLSTWLAWYQQKPGKAPKILIYAASSLQSGVPSRFSGSGSGTDFTLTISSLQPEDFATYYCQQANSFPLTFGGGTKVEIK
Result: 19.3
